# testedSystem: Aurora A (active) (Homo sapiens)
# Construct: Bacterially expressed full-length His-Aurora A was used to determine the IC50 value for CoA; made in house; host or cells: E. coli BL21 (DE3) pLysS
# Sequence (O14965 whole entry): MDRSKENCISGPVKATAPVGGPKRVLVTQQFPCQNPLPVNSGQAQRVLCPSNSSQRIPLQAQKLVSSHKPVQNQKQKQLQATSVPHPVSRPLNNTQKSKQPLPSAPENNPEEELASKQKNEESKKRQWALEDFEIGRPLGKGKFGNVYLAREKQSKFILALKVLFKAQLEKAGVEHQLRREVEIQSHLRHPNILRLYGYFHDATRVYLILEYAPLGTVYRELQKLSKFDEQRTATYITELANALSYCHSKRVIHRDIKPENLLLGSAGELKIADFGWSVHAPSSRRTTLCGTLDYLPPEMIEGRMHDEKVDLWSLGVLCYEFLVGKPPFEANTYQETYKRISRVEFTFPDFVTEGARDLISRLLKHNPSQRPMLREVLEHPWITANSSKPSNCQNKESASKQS
# testDetails: In vitro Aurora A kinase assay (γ33P-ATP incorporation into myelin basic protein)
# Type: biochemical
# conditionsUsed: 5 μM ATP, 1 mM DTT; read-out: IC50, Aurora A kinase activity in the presence of DTT
pIC50: −log10 of the molar value.
observable: pIC50

[[record]]
chemsmiles = "CC(C)(COP(=O)(O)OP(=O)(O)OC[C@H]1O[C@@H](n2cnc3c(N)ncnc32)[C@H](O)[C@@H]1OP(=O)(O)O)[C@@H](O)C(=O)NCCC(=O)NCCS"
number = 4.33


----------
# testedSystem: Aurora A (active), T288 phosphorylated (Homo sapiens)
# Construct: For enzyme and DSF assays, full-length human Aurora A and Aurora B and 1–43 TPX2 were produced; made in house; host or cells: E. coli
# Sequence (O14965 whole entry): as above
# testDetails: Lanthascreen Eu Kinase FRET binding assay
# conditionsUsed: read-out: IC50 for the interaction of active Aurora A
observable: IC50

[[record]]
compound = "Nc1ncnc2c1ncn2C1OC(COP(=O)(O)OP(=O)(O)O)C(O)C1O (stereo not shown) [ADP]"
testedsystem = "Aurora A (active), T288 phosphorylated (Homo sapiens)"
result = "~177 µM"

